Test system: lysine peptide Ac-RFAAKAA-COOH
Assay: efficacy of lysine peptide change (negative = depletion) (% activity); higher = less depletion
Conditions: incubation time: 24 h
Would you please tag the item y when its efficacy of lysine peptide change is -0.2 or above, and n when it is below?

>>> print(df.to_string())
                                   compound                target_or_system  assigned_category
0                    O=c1[nH]sc2cc(Cl)ccc12  lysine peptide Ac-RFAAKAA-COOH                  n
1                           CCCCNC(=S)NCCCC  lysine peptide Ac-RFAAKAA-COOH                  y
2  c1csc(SSc2cccs2)c1 [2-Thienyl disulfide]  lysine peptide Ac-RFAAKAA-COOH                  n
3  CCCCCCCC(=O)Oc1c(Br)cc(C#N)cc1Br [Bromoxynil octanoate]  lysine peptide Ac-RFAAKAA-COOH                  n
4  COC(=O)CCCCCCCC(=O)OC [Dimethyl nonanedioate]  lysine peptide Ac-RFAAKAA-COOH                  y

Next, consider the following compound.
Enquiry: Evaluate CC#Cc1cc(C)nc(Nc2ccccc2)n1 : efficacy of lysine peptide change at minimum -0.2?
Return: y

###

System: lysine peptide Ac-RFAAKAA-COOH
Assay: efficacy of lysine peptide change (negative = depletion) (% activity); higher = less depletion
Details: incubation time: 24 h
Quantity Name: efficacy of lysine peptide change

>>> df
                                   molecule                      quantity_name    val
0  CNC(=S)NN [N-Methylhydrazinecarbothioamide]  efficacy of lysine peptide change  -0.75
1              NNC(N)=S [Thiosemicarbazide]  efficacy of lysine peptide change   9.67
2   CCCOC/C(=N\c1ccc(Cl)cc1C(F)(F)F)n1ccnc1  efficacy of lysine peptide change   41.1

Enquiry: State the recorded efficacy of lysine peptide change for this entry: N#C/C=C/C#N
Return: -12.4

Enquiry: CC(C)=CCC1=C(O)c2ccccc2C(=O)C1=O , same question.
Return: -2.31

###

This listing pairs compounds with measured efficacy of cysteine peptide change.
Test system: cysteine peptide Ac-RFAACAA-COOH
Assay: efficacy of cysteine peptide change (negative = depletion) (% activity); higher = less depletion
Conditions: incubation time: 24 h
Please state the value as a number alone, without comment.

                                   compound                  target_or_system    val
0                  Nc1ccc([N+](=O)[O-])cc1N  cysteine peptide Ac-RFAACAA-COOH  -16.4
1                      Nc1ccc(Nc2ccccc2)cc1  cysteine peptide Ac-RFAACAA-COOH   -102
2  CCN(CC)c1ccc(C(=O)c2ccccc2C(=O)O)c(O)c1 [2-[4-(Diethylamino)-2-hydroxybenzoyl]benzoic acid]  cysteine peptide Ac-RFAACAA-COOH   1.78
3  COC(=O)CCCCCCCC(=O)OC [Dimethyl nonanedioate]  cysteine peptide Ac-RFAACAA-COOH   59.7
4        [Cl][Cd][Cl] [Cadmium II chloride]  cysteine peptide Ac-RFAACAA-COOH   11.2

Enquiry: Fill in: efficacy of cysteine peptide change of CCCCCCCCN is ___
Return: 0

Enquiry: How about this compound: C/C=C1\C(=O)C[C@H]2[C@@H]3CCC4=CC(=O)CC[C@]4(C)[C@H]3CC[C@]12C
Return: 2.81

Enquiry: Next record, please: CS/C(C)=N\OC(=O)N(C)SN(C)C(=O)O/N=C(\C)SC
Return: -96.8

Enquiry: Continue with Nc1ncn([C@@H]2O[C@H](CO)[C@@H](O)[C@H]2O)c(=O)n1
Return: 4.3
